- System: SDMA in human colon cancer cell line HCT116
- test.method.notes: Cell symmetric dimethylarginine (SDMA) test, In-cell Western, HCT116 (MTAP wild-type)
- Assay type: cell-based
- condition.parameters: Homo sapiens, HCT-116, 96 h, IC50 score class, read-out: Cell 96 h SDMA Inhibition (HCT116-MTAP+/+) (score)
pIC50: −log10 of the molar value.
Would you kindly list pIC50 for each of these compounds?

Quote pIC50 reported for Cn1cc2c(n1)c(=O)n(-c1cccc(C#N)c1)c1nc(C(F)(F)F)ccc21 [Compound B192] please. 5.52 to 6.00

Report measured pIC50; entry is Cn1cc2c(n1)c(=O)n(-c1cncc(O)c1)c1nc(C(F)(F)F)ccc21 [Compound B221] 6.00 to 6.70

Quickly give me recorded pIC50 for Cn1cc2c(n1)c(=O)n(-c1ccnn1C)c1cc(Cl)ccc21 [Compound B58] 5.52 to 6.00

Assign pIC50 to the following record: O=c1c2nn(C(F)F)cc2c2cc(F)c(Cl)cc2n1-c1cccnc1C1CC1 [Compound B337] < 5.52

For the compound Cc1cc(-n2c(=O)c3nn(C)cc3c3ccc(Cl)cc32)n(C)n1 [Compound B175] , report pIC50. < 5.52

Note pIC50 for the compound shown: CCn1cc2c(n1)c(=O)n(-c1cccc(F)c1)c1cc(Cl)ccc21 [Compound B4] < 5.52

Complete the entry with pIC50 for CCn1nc2c(=O)n(-c3cccnc3)c3cc(Cl)ccc3c2c1Cl [Compound B20] < 5.52

For CCn1cc2c(n1)c(=O)n(-c1c(C)ccnc1C)c1cc(Cl)ccc21 [Compound B31] , write its pIC50. 6.00 to 6.70

Report pIC50 for CC(C)n1cc2c(n1)c(=O)n(-c1cccnc1)c1cc(Cl)ccc21 [Compound B39] 5.52 to 6.00

Fill in reported pIC50 for this entry: CCn1cc2c(n1)c(=O)n(-c1cccnc1)c1nc(C(F)(F)F)ccc21 [Compound B29] 6.00 to 6.70

Complete the entry with pIC50 for COc1ccc(-n2cc3c(n2)c(=O)n(-c2ccccc2)c2nc(C(F)(F)F)ccc32)cc1 [Compound B218] < 5.52

Give the measured pIC50 for O=c1c2nn(C(F)F)cc2c2cc(F)c(Cl)cc2n1-c1cccnc1C1CC1 (single isomer, unassigned) [Compound B399] < 5.52

Entry COCCn1cc2c(n1)c(=O)n(-c1cccnc1)c1cc(Cl)ccc21 [Compound B45] needs its pIC50 filled in; supply it. < 5.52

Return the recorded pIC50 value; entry: Cn1cc2c(n1)c(=O)n(-c1ccccc1)c1nc(C(F)(F)F)ccc21 [Compound B177] 6.00 to 6.70

Answer with the recorded pIC50 of Cn1cc2c(n1)c(=O)n(-c1cccc(O)c1)c1cc(C(F)(F)F)ccc21 [Compound B150] only. 6.00 to 6.70

For Cn1cc2c(n1)c(=O)n(-c1cccc3[nH]nc(Br)c13)c1cc(Cl)ccc21 [Compound B332] , write its pIC50. < 5.52

Using the record for Cn1cc2c(n1)c(=O)n(-c1ccc3[nH]cnc3c1)c1cc(Cl)ccc21 [Compound B206] , state its measured pIC50. 5.52 to 6.00

Supply recorded pIC50 for N#Cc1cc2c3c[nH]nc3c(=O)n(-c3cccc4[nH]ncc34)c2cc1Cl [Compound B394] here. < 5.52

Indicate its recorded pIC50; the compound in question is CCn1nc2c(=O)n(-c3cccnc3)c3cc(Cl)ccc3c2c1C [Compound B17] 6.00 to 6.70

Write down pIC50 measured for item Cn1cc2c(n1)c(=O)n(-c1cccnc1C1CC1)c1nc(C(F)(F)F)ccc21 [Compound B183] > 6.70

Give a short answer stating reported pIC50 for Cn1cc2c(n1)c(=O)n(-c1cncc(F)c1)c1nc(C(F)(F)F)ccc21 [Compound B202] . < 5.52

Return reported pIC50. Input compound: O=c1c2n[nH]cc2c2ccc(C(F)(F)F)nc2n1-c1cccc2[nH]ncc12 [Compound B239] < 5.52

State its pIC50 for this compound: Cc1ncccc1-n1c(=O)c2nn(C)cc2c2ccc(C3CC3)cc21 [Compound B74] 6.00 to 6.70

Respond only with pIC50 recorded for Cc1ccc(-n2c(=O)c3nn(C)cc3c3ccc(C(F)(F)F)nc32)cn1 [Compound B223] 6.00 to 6.70

Read the entry CCn1cc2c(n1)c(=O)n(-c1cccc(O)c1)c1cc(Cl)ccc21 [Compound B8] and write its reported pIC50. 5.52 to 6.00

Item Cc1ncccc1-n1c(=O)c2nn(C)cc2c2ccc(Cl)cc21 [Compound B233] : provide pIC50 6.00 to 6.70

Fill in reported pIC50 for this entry: CN1CCN(c2ccc(Cn3cc4c(n3)c(=O)n(-c3cccc5[nH]ncc35)c3cc(Cl)c(F)cc43)cn2)CC1 [Compound B268] < 5.52

Write down pIC50 measured for item Cn1cc2c(n1)c(=O)n(-c1cccnc1)c1cc(Cl)cc(F)c21 [Compound B172] 5.52 to 6.00

Consider the compound Cn1cc2c(n1)c(=O)n(-c1cccnc1)c1cc(C(F)(F)F)ccc21 [Compound B69] . State its measured pIC50. 5.52 to 6.00

Return pIC50 (reported value) for this compound: Cn1ccc(Cn2cc3c(n2)c(=O)n(-c2cccnc2)c2cc(Cl)ccc32)n1 [Compound B48] < 5.52

State its pIC50: CCn1nc2c(=O)n(-c3cccnc3)c3cc(Cl)ccc3c2c1F [Compound B33] < 5.52

Provide one value: measured pIC50 of O=c1c2nn(CCO)cc2c2ccc(Cl)cc2n1-c1cccnc1 [Compound B46] < 5.52

Query pIC50 for O=c1c2nn(C(F)F)cc2c2ccc(C(F)(F)F)nc2n1-c1cccnc1 [Compound B255] < 5.52

Give the reported pIC50 for this compound. Cn1cc2c(n1)c(=O)n(Cc1cn[nH]c1)c1cc(Cl)ccc21 [Compound B235] < 5.52

----------
- Test system: HCT116-MTAP wild-type (+/+)-cell strain
- test.method.notes: Tumor cell proliferation inhibition assay (CellTiter-Glo), HCT116-MTAP wild-type (+/+)
- Type: cell-based
- condition.parameters: Homo sapiens, 120 h, HCT116-MTAP wild-type (+/+) cells, 5-day treatment, IC50 value, read-out: Tumor cell 5-day relative growth inhibition (HCT116-MTAP+/+)
Would you mind telling me the reported IC50 of each entry?
Number in nM, nothing else.

Identify the reported IC50 for the following entry. COc1ccc(-n2cc3c(n2)c(=O)n(-c2ccccc2)c2nc(C(F)(F)F)ccc32)cc1 3990

Fill in reported IC50 for this entry: Cn1cc2c(n1)c(=O)n(-c1cccc3[nH]ncc13)c1nc(C(F)(F)F)ccc21 1340

----------
- Test system: HCT116-MTAP wild-type (+/+)-cell strain
- test.method.notes: Tumor cell proliferation inhibition assay (CellTiter-Glo), HCT116-MTAP wild-type (+/+)
- Format: cell-based
- condition.parameters: Homo sapiens, 120 h, HCT116-MTAP wild-type (+/+) cells, 5-day treatment, IC50 value, read-out: Tumor cell 5-day relative growth inhibition (HCT116-MTAP+/+)
Would you mind telling me the reported pIC50 of each entry?
The value called pIC50 is obtained by taking minus log10 of the concentration in mol/L.

Find the measured pIC50 of Cn1cc2c(n1)c(=O)n(-c1cccc3[nH]ncc13)c1cc(Cl)ccc21 and report it. 6.00

Supply measured pIC50 of O=c1c2nn(C3CC3)cc2c2ccc(C(F)(F)F)nc2n1-c1cccnc1 in your reply. 5.38

For the compound Cc1ncccc1-n1c(=O)c2n[nH]cc2c2ccc(C(F)(F)F)nc21 , give its reported pIC50. 6.53

State its pIC50: Cn1cnc2c(=O)n(-c3cccnc3C3CC3)c3cc(Cl)c(F)cc3c21 5.01

Consider the compound Cn1cc2c(n1)c(=O)n(-c1cccnc1)c1nc(C(F)(F)F)ccc21 . State its measured pIC50. 5.77

----------
Please provide measured IC50 for the entries that follow.
- System: SDMA in human colon cancer cell line HCT116
- test.method.notes: Cell symmetric dimethylarginine (SDMA) test, In-cell Western, HCT116 (MTAP wild-type)
- Type: cell-based
- condition.parameters: Homo sapiens, HCT-116, 96 h, IC50 score class, read-out: Cell 96 h SDMA Inhibition (HCT116-MTAP+/+) (score)

Read off the recorded IC50 for Cn1cc2c(n1)c(=O)n(-c1cccnc1C(F)(F)F)c1cc(Cl)ccc21 [Compound B68] > 3000 nM

Give the value of IC50 reported for the following: Cc1ncccc1-n1c(=O)c2nn(C3CC3)cc2c2ccc(C(F)(F)F)nc21 [Compound B211] 1000 to 3000 nM

Given the compound Cc1ncccc1-n1c(=O)c2[nH]ncc2c2ccc(OC(F)(F)F)cc21 [Compound B101] , write its reported IC50. > 3000 nM

Report IC50, nothing else, for this compound: Cn1cc2c(n1)c(=O)n(-c1cccnc1C1CC1)c1nc(C3CC3)c(F)cc21 [Compound B359] > 3000 nM

Hello, please tell me recorded IC50 for this one: Cc1ncccc1-n1c(=O)c2nn(C)cc2c2ccc(OC(F)(F)F)cc21 [Compound B77] 200 to 1000 nM

For Cc1ncccc1-n1c(=O)c2nn(CC3CC3)cc2c2ccc(C(F)(F)F)nc21 [Compound B191] , write its IC50. 1000 to 3000 nM

Give IC50 for Cn1cc2c(n1)c(=O)n(-c1cccnc1)c1cc(Cl)ccc21 [Compound B12] 1000 to 3000 nM

Please supply the value of reported IC50 for the item Cc1ncccc1-n1c(=O)c2nn(C)cc2c2ccc(C(F)(F)F)nc21 (single isomer, unassigned) [Compound B180] < 200 nM
